B1: glmS ribozyme (parent)
chain: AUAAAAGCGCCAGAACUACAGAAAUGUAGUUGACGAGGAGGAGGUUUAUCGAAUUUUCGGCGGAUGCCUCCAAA

Variants of: B1
Assay: self-cleavage kobs at 640 uM GlcN6P; higher = faster cleavage; RNA array
Details: with glucosamine-6-phosphate
This sample holds only a part of the variants without activity.
Measured parameter: self-cleavage kobs at 640 uM GlcN6P (s⁻¹)

sequence_data="AUAAAAGAGCCAGAACUACAGAAAUGUAGUUGACGAUGAGGAGGUUUAUCGAAUUUUCGGCGGAUGCCUACAAA [C8A G37U C70A]" measured_parameter="self-cleavage kobs at 640 uM GlcN6P" result_comparator== readout_number=0.000214
sequence_data="AUAAAAGCGCAAGAACUACAGAAAUGUAGUUGACGAGGAGGAGGUUUGUCGAAUUUUCGGCGGAUGCCUCCAAA [C11A A48G]" measured_parameter="self-cleavage kobs at 640 uM GlcN6P" result_comparator=< readout_number=1e-05
sequence_data="AUAAAAGCGCCAGAACUACAGAAAUGUAGUGGACGAGGAGGAGGUUUAUCGAAUUUUCCGCGGAUGCCUCCAAA [U31G G59C]" measured_parameter="self-cleavage kobs at 640 uM GlcN6P" result_comparator=< readout_number=1e-05
sequence_data="AUAAAAACGCCAGAACUACAGAAAUGUAGUCGACGAGGAGGAGGUUUAUCGGAUUUUCGGCGGAUGCCUCCAAA [G7A U31C A52G]" measured_parameter="self-cleavage kobs at 640 uM GlcN6P" result_comparator=< readout_number=1e-05
sequence_data="AUAAAAGCGCCAGAACUACAGAAAUGUAGUUGACGAUGAGGCGGUUUAUCGAAUUGUCGGCGGAUGCCUCCAAA [G37U A42C U56G]" measured_parameter="self-cleavage kobs at 640 uM GlcN6P" result_comparator=< readout_number=1e-05
sequence_data="AUAAAAGCGUCAGAACUACAGAAAUGUAGUUGACGAGGAGGAGGUUUAUCGUAUUUUCGGCGGAUGCCUCCAAA [C10U A52U]" measured_parameter="self-cleavage kobs at 640 uM GlcN6P" result_comparator=< readout_number=1e-05
sequence_data="AUAAAAGCGCCAGAACUACAGAAAUGUAGUUGACGAGGAGGAGGUUAAUCGAAUUAUCGGCGGAUGCCUUCAAA [U47A U56A C70U]" measured_parameter="self-cleavage kobs at 640 uM GlcN6P" result_comparator== readout_number=0.00117
sequence_data="AUAAAAGUGCCAGAUCUACAGAAAUGUAGGUGACCAGGAGUAGGUUUAUCGAAUUUUCGGCGGAUGCCUCCAAA [C8U A15U U30G G35C G41U]" measured_parameter="self-cleavage kobs at 640 uM GlcN6P" result_comparator=< readout_number=1e-05
sequence_data="AUAAAAGCGCCAGUCCUACAGAAAUGUAGUUGUCGAGGAGGAGGUUUACGGAAUUUUCGGCGGAUGCCACCAAA [A14U A15C A33U U49C C50G U69A]" measured_parameter="self-cleavage kobs at 640 uM GlcN6P" result_comparator== readout_number=0.0012
sequence_data="AUAAAAGCGCCAGAAUUACAGAAAUGUAGUUGACGAGGAGGAGGUUUAUCGAAUUUGCGGCGGAUGCUUCCAAA [C16U U57G C68U]" measured_parameter="self-cleavage kobs at 640 uM GlcN6P" result_comparator== readout_number=3.89e-05
sequence_data="AUAAAAGCGCCAGAACUACAGAAAUGUAGUUGACGAGGAGGAGGUUUAUCGAAUUUUCGCAGGAUGCCUCCAAA [G60C C61A]" measured_parameter="self-cleavage kobs at 640 uM GlcN6P" result_comparator=< readout_number=1e-05
sequence_data="AUAAAAGCGCCAGGACUACAGAAAUGUAGAUGACGAGGAGGAGGUUUAUCGAAUUUUCGGCGGAUGCCUCCAAA [A14G U30A]" measured_parameter="self-cleavage kobs at 640 uM GlcN6P" result_comparator== readout_number=0.00759
sequence_data="AUAAAAGCAUCAAAACUACAGAAAUGUAGUUGACGAGGAGGAGGUUUAUCGCAUUUUCGGCGGAUGCCUCCAAA [G9A C10U G13A A52C]" measured_parameter="self-cleavage kobs at 640 uM GlcN6P" result_comparator=< readout_number=1e-05
sequence_data="AUAAAAGCGCCGGAACUACAGAAAUGUAGUUGACGAGUAGGAGGUUUAUCGAAUUUCCGGCGGAUGCCUCCAAA [A12G G38U U57C]" measured_parameter="self-cleavage kobs at 640 uM GlcN6P" result_comparator=< readout_number=1e-05
sequence_data="AUAAAAGCGCCAGAACUACAGAAAUGUAGUUGACUAGGGGGAGGUUUAUCGAAUUUUCGGCGGAUGCCUCCAAA [G35U A39G]" measured_parameter="self-cleavage kobs at 640 uM GlcN6P" result_comparator=< readout_number=1e-05
sequence_data="AUAAAAGCGCCAGAACUACAGAAAUGUAGUUAACGAGGAGGAGGUUUAUCGAAUUUUCGGCGGAUGCCUGCAAA [G32A C70G]" measured_parameter="self-cleavage kobs at 640 uM GlcN6P" result_comparator== readout_number=9.43e-05
sequence_data="AUAAAAGCGCAAGAGCUACAGAAAUGUAAUUGACGAGGAGGAGGUUUAUCGAAUUUUCGGCGGAUGCCUCCAAA [C11A A15G G29A]" measured_parameter="self-cleavage kobs at 640 uM GlcN6P" result_comparator=< readout_number=1e-05
sequence_data="AUAAAAGCGCCAGAACUACAGAAAUGUAGUUGACGAGGAGGAGGUUUAUCGAAUCUUCGGCGGACGCCUCCAAA [U55C U65C]" measured_parameter="self-cleavage kobs at 640 uM GlcN6P" result_comparator== readout_number=7.31e-05
sequence_data="AUAAAAGCGCCAGAACUACAGAAAUGUAGUUGACGAGGAGGAGGUUUAUCGAAUUUUCGCCGGGUGCCUCCAAA [G60C A64G]" measured_parameter="self-cleavage kobs at 640 uM GlcN6P" result_comparator=< readout_number=1e-05
sequence_data="AUAAAAGCGCCAGAACUACAGAAAUGUAGUUGACGAGGGGGUGGUUUAUCGAAUUUUCGGCGGAUGCCUCCAAA [A39G A42U]" measured_parameter="self-cleavage kobs at 640 uM GlcN6P" result_comparator== readout_number=0.00023
sequence_data="AUAAAAGCUCCAGACCUACAGAAAUGUAGUUGACGAGGAGGUGGUUUAUCGAAUUUUCGGCGGAUGCCUCCAAA [G9U A15C A42U]" measured_parameter="self-cleavage kobs at 640 uM GlcN6P" result_comparator=< readout_number=1e-05
sequence_data="AUAAAAGCACCAGAACUACAGAAAUGUAGUUGACGAGGAGGAGGUUUAUCGAAUUUUCGGCGAAUGCCUCCAAA [G9A G63A]" measured_parameter="self-cleavage kobs at 640 uM GlcN6P" result_comparator=< readout_number=1e-05
sequence_data="AUAAAAGCGCCAGAACUACAGAAAUGUAGUUGACGAGGAGGAGGUGUAUCGAGUUUUCGGCGGAUUCCUCCAAA [U46G A53G G66U]" measured_parameter="self-cleavage kobs at 640 uM GlcN6P" result_comparator== readout_number=7.95e-05
sequence_data="AUAAAAGCGCCUGAGCUACAGAAAUGUAGUUGACGAGGAGAAGGUUUAUCGAAUUUUCGGCGGAUGCCUCCAAA [A12U A15G G41A]" measured_parameter="self-cleavage kobs at 640 uM GlcN6P" result_comparator== readout_number=0.00098
sequence_data="AUAAAAGCGCCAGAACUACAGAAAUGUAGUUGACGAGGACGAGGUUUAUUGAAUUUUCGCCGGAUGCCUCCAAA [G40C C50U G60C]" measured_parameter="self-cleavage kobs at 640 uM GlcN6P" result_comparator=< readout_number=1e-05
sequence_data="AUAAAAGGGCCAGAACUACAGAAAUGUAGUUGACGAGGAGGAGGUUUAUCUAAUUUUCGGCGGUUGCCUCCAAA [C8G G51U A64U]" measured_parameter="self-cleavage kobs at 640 uM GlcN6P" result_comparator=< readout_number=1e-05
sequence_data="AUAAAGGCGCCAGUAGUACAGAAAUGUAGUUGACGAGGAGGAGGUUUAUCGAAUUAUCGGCGGAUGCCUCCAAA [A6G A14U C16G U56A]" measured_parameter="self-cleavage kobs at 640 uM GlcN6P" result_comparator=< readout_number=1e-05
sequence_data="AUAAAAGCGCCACAACUACAGAAAUGUAUUUGACGAGGAGGAGGUUUAUCGAAUUUUCGGCGGAUGCCUCCAAA [G13C G29U]" measured_parameter="self-cleavage kobs at 640 uM GlcN6P" result_comparator== readout_number=3.22e-05
sequence_data="AUAAAAGCGACAGAACUACAGAAAUGUAGUUGACGAGGUGGAGGUUUAUCGGAUUUUCGGCGGAUGCCUCCAAA [C10A A39U A52G]" measured_parameter="self-cleavage kobs at 640 uM GlcN6P" result_comparator=< readout_number=1e-05
sequence_data="AUAAAAGCGCCAGCACUACAGAAAUGUAGUUGACGAGGAGGGGGUUUAUCGAAUUUUCGGCGGAUGCCUCCAAA [A14C A42G]" measured_parameter="self-cleavage kobs at 640 uM GlcN6P" result_comparator== readout_number=0.00154
sequence_data="AUAAAAGCGCUAGAACUACAGAAAUGUAGUUGACGAGGAGGAGGUUUAUCGAAUGUUCGGCGGAUGCCUCAAAA [C11U U55G C71A]" measured_parameter="self-cleavage kobs at 640 uM GlcN6P" result_comparator== readout_number=8.41e-05
sequence_data="AUAAAAGCGCAAGAACUACAGAAAUGUAGUUGACGAGGAGGAGGUUUAUCGAAGUUUCGGCGGAUGGCUCAAAA [C11A U54G C67G C71A]" measured_parameter="self-cleavage kobs at 640 uM GlcN6P" result_comparator== readout_number=0.0001
sequence_data="AUAAAAGCGCCAGCACUACAGAAAUGUAUUUGACGAGGAGGAGGUUUAUCGAAUUUUCGGCGGAUGCCUCCAAA [A14C G29U]" measured_parameter="self-cleavage kobs at 640 uM GlcN6P" result_comparator== readout_number=0.000267
sequence_data="AUAAAAGCGCCAGAACUACAGAAAUGUAGUCGACGAGGAGGAGGUUUAUCGAAUUUUCGGCGGAUGACUCCAAA [U31C C67A]" measured_parameter="self-cleavage kobs at 640 uM GlcN6P" result_comparator== readout_number=0.000244
sequence_data="AUAAAAGCGCCAGAACUACAGAAAUGUAAUUGACCAGGGGUACGUUUAUCGAAUUUUCGGCAGUUGCCUCCAAA [G29A G35C A39G G41U G43C G62A A64U]" measured_parameter="self-cleavage kobs at 640 uM GlcN6P" result_comparator=< readout_number=1e-05
sequence_data="AUAAAAGCGCCAGAAUUACAGAAAUGUAGUUGACGCGAAGGAGGUUUAUCGAAUUUUCGGCGGAUGCCUCCAAA [C16U A36C G38A]" measured_parameter="self-cleavage kobs at 640 uM GlcN6P" result_comparator=< readout_number=1e-05
sequence_data="AUAAAAGCGGCAGAACUACAGAAAUGUAGUUGACGAGGAGGAGGUUUAUGGAAUUUUCGGCGGAUGCCUCCAAA [C10G C50G]" measured_parameter="self-cleavage kobs at 640 uM GlcN6P" result_comparator== readout_number=0.00026
sequence_data="AUAAAAGCGCCAGAACUACAGAAAUGUAGAAGACGAGGAGGAGGUUUAUCGAAUUUUCGGCGGAUGCCUCCAAA [U30A U31A]" measured_parameter="self-cleavage kobs at 640 uM GlcN6P" result_comparator== readout_number=0.00269
sequence_data="AUAAAAGCGCCAGAACUACAGAAAUGUAGUUGUCGAGGAGGAGGUUUAUCGAAUUUUCCGCGGAUGCCUCCAAA [A33U G59C]" measured_parameter="self-cleavage kobs at 640 uM GlcN6P" result_comparator=< readout_number=1e-05
sequence_data="AUAAACGCGCCAGAACUACAGAAAUGUAGUUGACGAGGAGGAGGUUUAUCGAAUUUUCGGCGGUUGCCUCCAAA [A6C A64U]" measured_parameter="self-cleavage kobs at 640 uM GlcN6P" result_comparator=< readout_number=1e-05
sequence_data="AUAAAAGCGCCAGAACUACAGAAAUGUAGAUGACGAGGAGGAGGUUUAUCGAAUUUUCGGCGGGUGCCUCCAAA [U30A A64G]" measured_parameter="self-cleavage kobs at 640 uM GlcN6P" result_comparator== readout_number=0.00193
sequence_data="AUAAAAGCGCCAGAACUACAGAAAUGUAGUUUAUGAGGAGGAGGUUUAUCGAAUUUUCGGCGGAUGCCUCCAAA [G32U C34U]" measured_parameter="self-cleavage kobs at 640 uM GlcN6P" result_comparator=< readout_number=1e-05
sequence_data="AUAAACGCGCCUGAACUACAGAAAUGUAGUUGACGAGGAGAAGGUUUAUCGAAUUUUCGGCGGAUGCCUCCAAA [A6C A12U G41A]" measured_parameter="self-cleavage kobs at 640 uM GlcN6P" result_comparator=< readout_number=1e-05
sequence_data="AUAAAUGCGCCAGAACUACAGAAAUGUAGUUGACGAGGAGGAGGAUUAUCGACUUUUCGGCGGAUGCCUCCAAA [A6U U45A A53C]" measured_parameter="self-cleavage kobs at 640 uM GlcN6P" result_comparator== readout_number=4.01e-05
sequence_data="AUAAAAGCGCCAGCACUACAGAAAUGUAGUUGACGAGGAGGAGGUUUAUCGAAUUUUCGGCGGAAGCCUCCAAA [A14C U65A]" measured_parameter="self-cleavage kobs at 640 uM GlcN6P" result_comparator== readout_number=0.000103
sequence_data="AUAAAAGCGCCAGAACUACAGAAAUGUACUUGACGAGGAGGAGGUUUCUCGAAUUUUCGGCUGAUGCCUCCAAA [G29C A48C G62U]" measured_parameter="self-cleavage kobs at 640 uM GlcN6P" result_comparator=< readout_number=1e-05
